Data provenance: ChEMBL document CHEMBL1136116

Known IC50 of a selection of compounds
- Target: Cyclin-dependent kinase 2/cyclin E (Homo sapiens, UniProt P24941)
- Assay Procedure: Inhibitory activity against Cyclin-dependent kinase 2-cyclin E

Can you share its IC50? I mean this compound: `CCCCOc1c(C(=O)Cc2ccccc2)cnc2[nH]ncc12`
> 1 µM

Can you share its IC50? I mean this compound: `CCCCOc1c(C(=O)OC)cnc2[nH]ncc12`
> 10 µM

Can you share its IC50? I mean this compound: `CCCCOc1c(C(C)=O)cnc2[nH]ncc12`
> 1 µM
